Every entry's value here was drawn from ChEMBL document CHEMBL2062516.

# Test system: Klebsiella pneumoniae
# procedure.summary: Antibacterial activity against Klebsiella pneumoniae
# Format: functional
recorded.metric: MIC (µg/mL)
Write the number in µg/mL without appending the unit.

Worked examples, 3 molecules total:
| mol | MIC (µg/mL) |
| --- | --- |
| CC(C)O/N=C(\C(=O)N[C@@H]1C(=O)N2C(C(=O)O)=C(CSc3nnnn3CCO)OC[C@H]12)c1nsc(N)n1 | 32 |
| Nc1nc(/C(=N/OC2CCCCC2)C(=O)N[C@@H]2C(=O)N3C(C(=O)O)=C(CSc4nncs4)OC[C@H]23)ns1 | 16 |
| CCCCCO/N=C(\C(=O)N[C@@H]1C(=O)N2C(C(=O)O)=C(CSc3nncs3)OC[C@H]12)c1nsc(N)n1 | 32 |

Exercise: Quick one: MIC for CC(C)(O/N=C(\C(=O)N[C@@H]1C(=O)N2C(C(=O)[O-])=C(C[n+]3ccccc3)CS[C@H]12)c1csc(N)n1)C(=O)O ?
Key: 32

Exercise: Lookup CC(C)O/N=C(\C(=O)N[C@@H]1C(=O)N2C(C(=O)O)=C(CSc3nncs3)OC[C@H]12)c1nsc(N)n1
Key: 1

====

# System: Pseudomonas aeruginosa
# procedure.summary: Antibacterial activity against Pseudomonas aeruginosa ATCC 27853
# Type: functional
recorded.metric: MIC (mg/L)
// units = mg/L; emit number, no label

| mol | experimental.target | assay.value |
| --- | --- | --- |
| CCCCCO/N=C(\C(=O)N[C@@H]1C(=O)N2C(C(=O)O)=C(CSc3nnnn3CCO)OC[C@H]12)c1nsc(N)n1 | Pseudomonas aeruginosa | 4 |
| CCO/N=C(\C(=O)N[C@@H]1C(=O)N2C(C(=O)O)=C(CSc3nnnn3CCO)OC[C@H]12)c1nsc(N)n1 | Pseudomonas aeruginosa | 64 |
| CO/N=C(\C(=O)N[C@@H]1C(=O)N2C(C(=O)O)=C(CSc3nncs3)OC[C@H]12)c1nsc(N)n1 | Pseudomonas aeruginosa | 32 |

Turning now to a further record.
Exercise: Field: MIC (Pseudomonas aeruginosa). Entry: Nc1nc(/C(=N/OC2CCCCC2)C(=O)N[C@@H]2C(=O)N3C(C(=O)O)=C(CSc4nncs4)OC[C@H]23)ns1
Key: 16

====

# Tested on: Pseudomonas aeruginosa
# procedure.summary: Antibacterial activity against Pseudomonas aeruginosa ATCC 27853
# Assay type: functional
# key: entry, value: MIC
A bare number is not enough; add the unit after it.

| mol | MIC |
| --- | --- |
| CC(C)O/N=C(\C(=O)N[C@@H]1C(=O)N2C(C(=O)O)=C(CSc3nnnn3CCO)OC[C@H]12)c1nsc(N)n1 | 8 µg/mL |
| CC(C)CCO/N=C(\C(=O)N[C@@H]1C(=O)N2C(C(=O)O)=C(CSc3nncs3)OC[C@H]12)c1nsc(N)n1 | 128 µg/mL |
| Nc1nc(/C(=N/OC2CCCC2)C(=O)N[C@@H]2C(=O)N3C(C(=O)O)=C(CSc4nnnn4CCO)OC[C@H]23)ns1 | 2 µg/mL |

Next, consider the following molecule.
Exercise: # MIC lookup, item CC(C)O/N=C(\C(=O)N[C@@H]1C(=O)N2C(C(=O)O)=C(CSc3nncs3)OC[C@H]12)c1nsc(N)n1
Key: 4 µg/mL

====

Reported MIC is given for each of the following compounds.
# Tested on: Klebsiella pneumoniae
# procedure.summary: Antibacterial activity against Klebsiella pneumoniae
# Assay type: functional

Worked examples follow.
| mol | MIC |
| --- | --- |
| CCO/N=C(\C(=O)N[C@@H]1C(=O)N2C(C(=O)O)=C(CSc3nnnn3CCO)OC[C@H]12)c1nsc(N)n1 | 64 µg/mL |
| CO/N=C(\C(=O)N[C@@H]1C(=O)N2C(C(=O)O)=C(CSc3nnnn3CCO)OC[C@H]12)c1nsc(N)n1 | 32 µg/mL |
| CCCCCO/N=C(\C(=O)N[C@@H]1C(=O)N2C(C(=O)O)=C(CSc3nnnn3CCO)OC[C@H]12)c1nsc(N)n1 | 32 µg/mL |
| CCO/N=C(\C(=O)N[C@@H]1C(=O)N2C(C(=O)O)=C(CSc3nncs3)OC[C@H]12)c1nsc(N)n1 | 128 µg/mL |

Exercise: Quick one: MIC for CO/N=C(\C(=O)N[C@@H]1C(=O)N2C(C(=O)O)=C(CSc3nncs3)OC[C@H]12)c1nsc(N)n1 ?
Key: 8 µg/mL

Exercise: What do you get for Nc1nc(/C(=N/OC2CCCC2)C(=O)N[C@@H]2C(=O)N3C(C(=O)O)=C(CSc4nncs4)OC[C@H]23)ns1 ?
Key: 4 µg/mL
